Please provide measured IC50 for the entries that follow.
molecular target: EGFR (Homo sapiens, UniProt P00533); test: Human kinase selectivity screening: EGFR; type: biochemical; conditions: read-out: EGFR pIC50 values (converted)
Sequence (P00533 25-1210): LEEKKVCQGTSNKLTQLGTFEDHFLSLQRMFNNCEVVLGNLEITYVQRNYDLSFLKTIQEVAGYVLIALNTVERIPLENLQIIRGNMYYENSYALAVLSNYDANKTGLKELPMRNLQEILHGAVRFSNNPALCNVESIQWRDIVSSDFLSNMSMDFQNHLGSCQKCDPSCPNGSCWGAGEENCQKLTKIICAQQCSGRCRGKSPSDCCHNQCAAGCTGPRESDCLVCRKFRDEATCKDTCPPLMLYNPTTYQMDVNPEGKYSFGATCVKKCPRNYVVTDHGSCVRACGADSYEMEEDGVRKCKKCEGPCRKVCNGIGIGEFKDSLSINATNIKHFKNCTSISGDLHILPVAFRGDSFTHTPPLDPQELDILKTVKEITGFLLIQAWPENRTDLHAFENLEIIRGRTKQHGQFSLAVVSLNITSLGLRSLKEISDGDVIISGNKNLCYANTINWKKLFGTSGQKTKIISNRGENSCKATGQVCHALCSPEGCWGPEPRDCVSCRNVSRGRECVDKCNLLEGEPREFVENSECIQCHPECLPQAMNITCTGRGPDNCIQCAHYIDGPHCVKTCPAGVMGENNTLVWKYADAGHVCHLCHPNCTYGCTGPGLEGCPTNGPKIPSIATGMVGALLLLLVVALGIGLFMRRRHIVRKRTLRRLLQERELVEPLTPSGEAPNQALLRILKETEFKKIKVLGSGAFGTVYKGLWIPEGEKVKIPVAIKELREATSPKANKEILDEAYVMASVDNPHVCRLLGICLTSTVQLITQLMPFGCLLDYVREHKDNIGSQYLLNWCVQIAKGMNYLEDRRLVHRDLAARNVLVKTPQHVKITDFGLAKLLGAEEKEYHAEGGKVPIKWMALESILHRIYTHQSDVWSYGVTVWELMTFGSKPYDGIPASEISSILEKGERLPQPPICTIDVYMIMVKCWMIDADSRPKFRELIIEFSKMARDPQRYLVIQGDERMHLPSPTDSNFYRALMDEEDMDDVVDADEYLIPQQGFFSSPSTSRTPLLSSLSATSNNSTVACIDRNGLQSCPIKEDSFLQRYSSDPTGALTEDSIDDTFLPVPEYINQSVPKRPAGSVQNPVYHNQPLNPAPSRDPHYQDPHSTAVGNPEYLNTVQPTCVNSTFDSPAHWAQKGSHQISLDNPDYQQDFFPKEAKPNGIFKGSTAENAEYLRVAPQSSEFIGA

Which measured IC50 value corresponds to O=S1(=O)Cc2ccc(Nc3nccc(-c4ccc(F)cc4)n3)cc2C1 ?
> 25.1 µM

Which measured IC50 value corresponds to Cc1cc(Nc2cc(C3CC3)[nH]n2)nc(N2CCCCC2)n1 ?
> 25.1 µM

Which measured IC50 value corresponds to CCCCc1nc(Nc2cccc(C)c2)c2c(=O)[nH]ccc2n1 ?
> 25.1 µM

Which measured IC50 value corresponds to O=C(Nc1ccc(-c2ccnc3[nH]ccc23)s1)C1(Cc2ccccc2)CCCNC1 (stereo not shown) ?
> 25.1 µM

====

Please provide measured IC50 for the entries that follow.
Target: JAK3 (Homo sapiens)
Sequence (P52333 1-1124): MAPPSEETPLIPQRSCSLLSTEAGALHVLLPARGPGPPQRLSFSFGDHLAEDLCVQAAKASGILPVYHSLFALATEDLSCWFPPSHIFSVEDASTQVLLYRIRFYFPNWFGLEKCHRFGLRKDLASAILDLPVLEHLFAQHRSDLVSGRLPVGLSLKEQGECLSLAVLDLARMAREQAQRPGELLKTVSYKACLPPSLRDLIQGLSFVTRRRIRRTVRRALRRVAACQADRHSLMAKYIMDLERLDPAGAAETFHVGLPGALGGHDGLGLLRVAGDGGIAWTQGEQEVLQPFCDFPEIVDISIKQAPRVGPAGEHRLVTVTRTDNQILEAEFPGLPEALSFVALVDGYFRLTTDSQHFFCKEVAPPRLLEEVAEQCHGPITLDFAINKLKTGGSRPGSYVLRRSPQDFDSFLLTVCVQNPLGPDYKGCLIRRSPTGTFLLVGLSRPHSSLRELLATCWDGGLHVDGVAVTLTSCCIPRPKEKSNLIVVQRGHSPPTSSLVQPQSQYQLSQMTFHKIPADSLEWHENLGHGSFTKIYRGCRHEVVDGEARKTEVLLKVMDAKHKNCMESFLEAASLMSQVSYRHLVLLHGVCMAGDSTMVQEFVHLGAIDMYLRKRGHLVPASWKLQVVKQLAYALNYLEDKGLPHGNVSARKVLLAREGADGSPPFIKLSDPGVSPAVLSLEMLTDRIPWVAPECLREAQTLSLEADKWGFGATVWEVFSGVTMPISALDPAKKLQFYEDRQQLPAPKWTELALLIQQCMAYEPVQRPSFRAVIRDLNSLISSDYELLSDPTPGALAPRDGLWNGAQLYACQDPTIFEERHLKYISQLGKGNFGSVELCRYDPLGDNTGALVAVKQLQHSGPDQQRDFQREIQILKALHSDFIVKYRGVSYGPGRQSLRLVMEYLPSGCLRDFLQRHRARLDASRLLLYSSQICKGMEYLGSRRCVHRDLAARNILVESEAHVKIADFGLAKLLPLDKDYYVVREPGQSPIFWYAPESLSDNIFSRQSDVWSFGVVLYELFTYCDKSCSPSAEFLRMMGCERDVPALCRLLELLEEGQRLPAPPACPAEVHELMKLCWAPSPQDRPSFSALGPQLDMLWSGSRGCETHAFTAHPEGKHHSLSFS
Test: Human kinase selectivity screening: JAK3
Type: biochemical
Settings: read-out: JAK3 pIC50 values (converted)
The reply should be a number in nM, with the unit left off.

Which measured IC50 value corresponds to O=S1(=O)Cc2ccc(Nc3nccc(-c4ccc(F)cc4)n3)cc2C1 ?
631

Which measured IC50 value corresponds to Cc1cc(Nc2cc(C3CC3)[nH]n2)nc(N2CCCCC2)n1 ?
631

Which measured IC50 value corresponds to O=C(Nc1ccc(-c2ccnc3[nH]ccc23)s1)C1(Cc2ccccc2)CCCNC1 (stereo not drawn) ?
501
